Target: PI3-kinase p110-alpha/p85-alpha (Homo sapiens)
Sequence (P42336 whole entry, one chain of several): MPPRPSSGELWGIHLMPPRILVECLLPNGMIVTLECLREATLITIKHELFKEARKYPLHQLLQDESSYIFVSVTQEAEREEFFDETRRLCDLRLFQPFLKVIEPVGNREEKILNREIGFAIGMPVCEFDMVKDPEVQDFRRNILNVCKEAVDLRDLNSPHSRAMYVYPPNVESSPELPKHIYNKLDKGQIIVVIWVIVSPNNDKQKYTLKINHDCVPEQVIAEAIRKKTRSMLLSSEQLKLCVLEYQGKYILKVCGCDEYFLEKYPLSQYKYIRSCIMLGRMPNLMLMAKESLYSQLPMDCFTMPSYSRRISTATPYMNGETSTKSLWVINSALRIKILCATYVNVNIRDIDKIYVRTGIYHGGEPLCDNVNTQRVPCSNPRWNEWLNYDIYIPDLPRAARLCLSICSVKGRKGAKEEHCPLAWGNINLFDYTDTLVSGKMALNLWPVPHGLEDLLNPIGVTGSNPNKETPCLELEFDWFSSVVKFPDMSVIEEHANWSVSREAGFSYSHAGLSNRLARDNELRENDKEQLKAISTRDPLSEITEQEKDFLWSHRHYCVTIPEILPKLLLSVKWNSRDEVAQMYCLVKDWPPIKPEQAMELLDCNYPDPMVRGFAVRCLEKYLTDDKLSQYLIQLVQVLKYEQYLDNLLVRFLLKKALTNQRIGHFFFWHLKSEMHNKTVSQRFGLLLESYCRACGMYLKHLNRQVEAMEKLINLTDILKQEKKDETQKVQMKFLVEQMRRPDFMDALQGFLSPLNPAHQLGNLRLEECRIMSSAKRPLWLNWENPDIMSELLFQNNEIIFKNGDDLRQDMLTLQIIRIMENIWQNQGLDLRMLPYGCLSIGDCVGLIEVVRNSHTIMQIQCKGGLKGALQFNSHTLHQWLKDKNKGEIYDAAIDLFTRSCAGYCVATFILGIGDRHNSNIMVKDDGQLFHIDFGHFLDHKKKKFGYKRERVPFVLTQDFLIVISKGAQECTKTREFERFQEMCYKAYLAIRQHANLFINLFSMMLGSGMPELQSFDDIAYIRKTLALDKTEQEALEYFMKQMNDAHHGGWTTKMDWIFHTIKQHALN
Assay: Inhibition of N-terminal His6-tagged recombinant full-length human p110alpha/untagged recombinant full length human p85alpha expressed in baculovirus infected Sf21 cells using phosphatidylinositol as substrate in presence of gamma-32P-ATP after 5 mins by thin layer chromatographic method
Measured Endpoint: IC50

> print(dat)
                                   compound                              assay.target   result
1  CC(=O)Nc1nc2ccc(-c3nn(Cc4cc5cccc(C)c5c(=O)n4-c4ccccc4)c4ncnc(N)c34)cc2s1  PI3-kinase p110-alpha/p85-alpha (Homo sapiens)   < 1 µM
2  Cc1ccccc1-n1c(Cn2nc(-c3cccc(O)c3)c3c(N)ncnc32)cc2cccc(C)c2c1=O  PI3-kinase p110-alpha/p85-alpha (Homo sapiens)  > 10 µM
3  Cc1ccccc1-n1c(Cn2nc(/C=C3/SC(=O)NC3=O)c3c(N)ncnc32)cc2cccc(C)c2c1=O  PI3-kinase p110-alpha/p85-alpha (Homo sapiens)  < 10 µM

====

Target: PI3K p110 beta/p85 alpha (Homo sapiens)
Sequence (P27986 whole entry): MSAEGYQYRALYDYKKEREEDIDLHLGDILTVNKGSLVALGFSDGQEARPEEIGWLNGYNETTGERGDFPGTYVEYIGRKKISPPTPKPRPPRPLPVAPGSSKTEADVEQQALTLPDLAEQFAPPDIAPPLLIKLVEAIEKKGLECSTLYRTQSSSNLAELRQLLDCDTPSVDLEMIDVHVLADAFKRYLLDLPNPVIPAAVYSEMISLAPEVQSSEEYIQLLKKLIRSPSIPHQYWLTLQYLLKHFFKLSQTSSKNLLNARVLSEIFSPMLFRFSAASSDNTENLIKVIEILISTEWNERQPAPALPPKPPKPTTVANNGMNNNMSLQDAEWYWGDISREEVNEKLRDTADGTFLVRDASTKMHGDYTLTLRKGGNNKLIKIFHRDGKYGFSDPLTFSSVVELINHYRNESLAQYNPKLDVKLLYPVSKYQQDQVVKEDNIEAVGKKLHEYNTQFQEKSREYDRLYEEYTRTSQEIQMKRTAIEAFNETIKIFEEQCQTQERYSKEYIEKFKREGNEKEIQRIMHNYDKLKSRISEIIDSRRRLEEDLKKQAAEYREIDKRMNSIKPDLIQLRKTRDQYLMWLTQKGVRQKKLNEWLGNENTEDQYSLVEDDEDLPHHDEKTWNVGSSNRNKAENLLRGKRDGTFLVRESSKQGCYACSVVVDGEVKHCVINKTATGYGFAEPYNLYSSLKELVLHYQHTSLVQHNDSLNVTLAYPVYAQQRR
Sequence (P42338 whole entry): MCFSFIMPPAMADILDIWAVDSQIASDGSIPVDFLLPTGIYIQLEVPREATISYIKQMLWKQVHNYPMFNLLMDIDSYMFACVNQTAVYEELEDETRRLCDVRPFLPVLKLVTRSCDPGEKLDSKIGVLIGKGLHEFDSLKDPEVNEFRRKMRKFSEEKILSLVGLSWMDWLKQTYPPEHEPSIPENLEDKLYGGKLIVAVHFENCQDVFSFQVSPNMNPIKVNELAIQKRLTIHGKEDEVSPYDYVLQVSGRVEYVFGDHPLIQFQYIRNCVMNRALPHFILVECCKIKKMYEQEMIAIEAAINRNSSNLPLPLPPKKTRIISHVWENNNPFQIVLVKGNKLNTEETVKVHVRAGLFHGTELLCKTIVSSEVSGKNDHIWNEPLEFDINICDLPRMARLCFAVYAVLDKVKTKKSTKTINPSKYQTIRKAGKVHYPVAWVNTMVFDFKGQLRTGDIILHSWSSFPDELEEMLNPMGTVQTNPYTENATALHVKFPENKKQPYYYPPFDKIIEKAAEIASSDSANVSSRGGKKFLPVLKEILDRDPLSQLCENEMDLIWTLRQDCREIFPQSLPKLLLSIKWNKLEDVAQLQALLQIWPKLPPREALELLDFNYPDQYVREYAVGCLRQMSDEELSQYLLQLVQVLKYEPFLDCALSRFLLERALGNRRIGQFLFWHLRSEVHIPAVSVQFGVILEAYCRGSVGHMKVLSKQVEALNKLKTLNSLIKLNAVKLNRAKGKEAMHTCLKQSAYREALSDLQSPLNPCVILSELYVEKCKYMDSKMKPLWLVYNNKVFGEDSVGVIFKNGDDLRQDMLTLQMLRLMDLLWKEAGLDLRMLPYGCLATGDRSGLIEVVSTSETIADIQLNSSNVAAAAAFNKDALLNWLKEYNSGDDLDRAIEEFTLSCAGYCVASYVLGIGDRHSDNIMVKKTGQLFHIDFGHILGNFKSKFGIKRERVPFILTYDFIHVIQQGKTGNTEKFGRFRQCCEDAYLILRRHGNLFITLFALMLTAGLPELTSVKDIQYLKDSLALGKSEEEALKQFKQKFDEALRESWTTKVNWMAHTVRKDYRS
Test: Inhibition of N-terminal His6-tagged recombinant full-length human p110beta/untagged recombinant full length p85alpha expressed in baculovirus infected Sf21 cells using phosphatidylinositol as substrate in presence of gamma-32P-ATP after 5 mins by thin layer chromatographic method
Measured IC50, listed per entry.
Measured Endpoint: IC50

> print(dat)
                                    compound    result
 1  Cc1ccccc1-n1c(Cn2nc(-c3ccn[nH]3)c3c(N)ncnc32)cc2cccc(C)c2c1=O   > 10 µM
 2  Cc1cccc2cc(Cn3nc(/C=C4/CCNC4=O)c4c(N)ncnc43)n(-c3ccccc3F)c(=O)c12   > 10 µM
 3  Cc1cccc2cc(Cn3nc(C#C[C@@H](C)O)c4c(N)ncnc43)n(-c3ccccc3O)c(=O)c12   > 10 µM
 4  Cc1cccc2cc(Cn3nc(-c4cccc(O)c4)c4c(N)ncnc43)n(C(C)C)c(=O)c12    < 1 µM
 5  Cc1cccc2cc([C@H](C)Nc3ncnc4[nH]cc(C#N)c34)n(C3CC3)c(=O)c12  < 0.1 µM
 6  Cc1cccc2cc([C@H](C)Nc3ncnc4[nH]cnc34)n(C3CC3)c(=O)c12  < 0.1 µM
 7  Cc1cccc2cc(Cn3nc(-c4cccc(O)c4)c4c(N)ncnc43)n(-c3ccccc3Cl)c(=O)c12   < 10 µM
 8  Cc1ccccc1-n1c(Cn2nc(-c3ccc(F)c(O)c3)c3c(N)ncnc32)cc2cccc(C)c2c1=O   < 10 µM
 9  CCc1ccccc1-n1c(Cn2nc(-c3cn[nH]c3)c3c(N)ncnc32)cc2cccc(C)c2c1=O   < 10 µM
10  Cc1cccc2cc(Cn3nc(-c4cccc(O)c4)c4c(N)ncnc43)n(C3CC3)c(=O)c12    < 1 µM
11  Cc1ccccc1-n1c(Cn2nc(-c3cnn(CCO)c3)c3c(N)ncnc32)cc2cccc(C)c2c1=O   > 10 µM
12  Cc1ccccc1-n1c(Cn2nc(/C=C3/SC(=O)NC3=O)c3c(N)ncnc32)cc2cccc(C)c2c1=O   < 10 µM
13  CCN(Cc1cc2cccc(C)c2c(=O)n1-c1ccccc1C)c1ncnc2[nH]cnc12   > 10 µM
14  Cc1ccccc1-n1c(Cn2nc(-c3cc(O)cc(F)c3)c3c(N)ncnc32)cc2cccc(F)c2c1=O   < 10 µM
15  CC(=O)Nc1nc2ccc(-c3nn(Cc4cc5cccc(C)c5c(=O)n4C)c4ncnc(N)c34)cc2s1    < 1 µM
16  CCc1ccccc1-n1c(Cn2nc(C#C[C@@H](C)O)c3c(N)ncnc32)cc2cccc(C)c2c1=O   < 10 µM
17  Cc1cccc2cc(Cn3nc(-c4cc(O)cc(F)c4)c4c(N)ncnc43)n(C3CCCC3)c(=O)c12   < 10 µM
18  Cc1cccc2cc(Cn3nc(I)c4c(N)ncnc43)n(-c3ccccc3O)c(=O)c12   > 10 µM
19  CCn1c(Cn2nc(-c3ccc4nc(NC(C)=O)sc4c3)c3c(N)ncnc32)cc2cccc(C)c2c1=O    < 1 µM
